Target of assay: biotinylated truncated STAT6 (123-632)-avi (Homo sapiens, UniProt P42226)
Sequence (P42226 123-632 limits assumed): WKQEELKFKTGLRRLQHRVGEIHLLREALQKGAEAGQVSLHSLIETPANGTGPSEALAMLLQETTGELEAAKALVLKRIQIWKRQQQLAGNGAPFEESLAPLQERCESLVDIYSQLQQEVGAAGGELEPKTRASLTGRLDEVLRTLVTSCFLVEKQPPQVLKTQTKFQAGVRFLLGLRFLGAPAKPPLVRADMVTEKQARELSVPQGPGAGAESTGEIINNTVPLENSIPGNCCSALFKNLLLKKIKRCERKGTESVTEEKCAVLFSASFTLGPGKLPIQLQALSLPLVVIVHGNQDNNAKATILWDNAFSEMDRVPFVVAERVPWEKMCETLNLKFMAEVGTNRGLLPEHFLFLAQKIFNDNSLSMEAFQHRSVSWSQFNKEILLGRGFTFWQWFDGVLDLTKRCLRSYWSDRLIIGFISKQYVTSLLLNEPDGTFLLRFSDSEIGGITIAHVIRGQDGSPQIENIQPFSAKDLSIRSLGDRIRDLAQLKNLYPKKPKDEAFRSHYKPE
Protocol: biochemical
pIC50: −log10 of the molar value.
Property measured: pIC50

>  <Compound>
CN(C)C(=O)c1cc2cc(NC(=O)CCCn3ccnn3)ccc2o1 [Compound I-258]

>  <Target of assay>
biotinylated truncated STAT6 (123-632)-avi (Homo sapiens, UniProt P42226)

>  <Result>
4.00 to 5.00

$$$$
>  <Compound>
CN(C)C(=O)c1ccc(C2=CCCN(C(=O)CCn3ccnn3)C2)cc1C(N)=O [Compound I-211]

>  <Target of assay>
biotinylated truncated STAT6 (123-632)-avi (Homo sapiens, UniProt P42226)

>  <Result>
4.00 to 5.00

$$$$
>  <Compound>
CN(C)C(=O)c1ccc(C2=CCCN(C(=O)CCn3ccnn3)C2)cc1O [Compound I-218]

>  <Target of assay>
biotinylated truncated STAT6 (123-632)-avi (Homo sapiens, UniProt P42226)

>  <Result>
4.00 to 5.00

$$$$
>  <Compound>
CN(C)C(=O)c1ccc(C2=CCCN(C(=O)CC3Oc4ccccc4NC3=O)C2)c(OC(F)(F)F)c1 (stereo not shown) [Compound I-1298]

>  <Target of assay>
biotinylated truncated STAT6 (123-632)-avi (Homo sapiens, UniProt P42226)

>  <Result>
4.00 to 5.00

$$$$
>  <Compound>
Cc1cscc1-c1cc(CO)ccc1C(=O)N(C)CC1CCN(c2ccc(-n3ccccc3=O)cc2F)CC1 [Compound I-131]

>  <Target of assay>
biotinylated truncated STAT6 (123-632)-avi (Homo sapiens, UniProt P42226)

>  <Result>
4.00 to 5.00

$$$$
>  <Compound>
CN(C)C(=O)c1ccc(C2=CCCN(C(=O)CCn3ccnn3)C2)c(O)c1 [Compound I-253]

>  <Target of assay>
biotinylated truncated STAT6 (123-632)-avi (Homo sapiens, UniProt P42226)

>  <Result>
5.00 to 6.00

$$$$
>  <Compound>
COc1cc(C(=O)N(C)C)ccc1C1=CCCN(C(=O)CCn2ccnn2)C1 [Compound I-260]

>  <Target of assay>
biotinylated truncated STAT6 (123-632)-avi (Homo sapiens, UniProt P42226)

>  <Result>
5.00 to 6.00

$$$$
>  <Compound>
Cn1cccc(-c2ccc([C@@H]3CCCN(C(=O)CCn4ccnn4)C3)cc2F)c1=O (single isomer, unassigned) [Compound I-320]

>  <Target of assay>
biotinylated truncated STAT6 (123-632)-avi (Homo sapiens, UniProt P42226)

>  <Result>
4.00 to 5.00

$$$$
>  <Compound>
CNC(=O)c1ccc2c(c1)nc(-c1cccn1C)n2-c1ccccc1OC(F)F [Compound I-1272]

>  <Target of assay>
biotinylated truncated STAT6 (123-632)-avi (Homo sapiens, UniProt P42226)

>  <Result>
4.00 to 5.00

$$$$
>  <Compound>
CN(C)C(=O)c1cc2ccc(-c3cnc(CC(=O)Nc4cccc(C(N)=O)c4)s3)c(F)c2[nH]1 [Compound I-1323]

>  <Target of assay>
biotinylated truncated STAT6 (123-632)-avi (Homo sapiens, UniProt P42226)

>  <Result>
6.00 to 7.00

$$$$
>  <Compound>
COc1ccccc1-c1cc(-n2ccccc2=O)cc(F)c1N1CCC(CN(C)C(=O)c2ccc(CO)cc2)CC1 [Compound I-1296]

>  <Target of assay>
biotinylated truncated STAT6 (123-632)-avi (Homo sapiens, UniProt P42226)

>  <Result>
4.00 to 5.00

$$$$
>  <Compound>
CN(C)C(=O)c1ccc(N2CCC(CN(C)C(=O)c3ccc(CO)cc3)CC2)c(F)c1 [Compound I-238]

>  <Target of assay>
biotinylated truncated STAT6 (123-632)-avi (Homo sapiens, UniProt P42226)

>  <Result>
4.00 to 5.00

$$$$
>  <Compound>
CN(C)C(=O)c1ccc(C2=CCCN(C(=O)CCn3ccnn3)C2)cc1 [Compound I-288]

>  <Target of assay>
biotinylated truncated STAT6 (123-632)-avi (Homo sapiens, UniProt P42226)

>  <Result>
5.00 to 6.00

$$$$
>  <Compound>
COC(=O)COc1cc(C2=CCCN(C(=O)CCn3ccnn3)C2)ccc1C(=O)N(C)C [Compound I-250]

>  <Target of assay>
biotinylated truncated STAT6 (123-632)-avi (Homo sapiens, UniProt P42226)

>  <Result>
4.00 to 5.00

$$$$
>  <Compound>
CN(CC1CCN(c2ccc(-n3ccccc3=O)cc2F)CC1)C(Cc1cccnn1)c1ccc(CO)cc1 (stereo not shown) [Compound I-121]

>  <Target of assay>
biotinylated truncated STAT6 (123-632)-avi (Homo sapiens, UniProt P42226)

>  <Result>
< 4.00

$$$$
>  <Compound>
CCc1ccc(-c2cc(C(=O)N3Cc4cnn(CC)c4C3)cc3cc(-c4cc(C(=O)O)ccc4C)n(CC4CC4)c23)c(C)n1 [Compound I-1246]

>  <Target of assay>
biotinylated truncated STAT6 (123-632)-avi (Homo sapiens, UniProt P42226)

>  <Result>
5.00 to 6.00

$$$$
>  <Compound>
CN(CC1CCN(c2ccc(-n3ccccc3=O)cc2F)CC1)C(=O)c1ccc(CO)cc1-c1ccsc1 [Compound I-164]

>  <Target of assay>
biotinylated truncated STAT6 (123-632)-avi (Homo sapiens, UniProt P42226)

>  <Result>
5.00 to 6.00

$$$$
>  <Compound>
Cn1cccc(-c2ccc([C@H]3CCCN(C(=O)CCn4ccnn4)C3)cc2F)c1=O (single isomer, unassigned) [Compound I-7]

>  <Target of assay>
biotinylated truncated STAT6 (123-632)-avi (Homo sapiens, UniProt P42226)

>  <Result>
4.00 to 5.00

$$$$
>  <Compound>
CCc1ccc(-c2cc(C(=O)N3Cc4cnn(CC)c4C3)cc3cc(-c4cccc(C(=O)O)c4C)n(CC4CC4)c23)c(C)n1 [Compound I-1240]

>  <Target of assay>
biotinylated truncated STAT6 (123-632)-avi (Homo sapiens, UniProt P42226)

>  <Result>
5.00 to 6.00

$$$$
>  <Compound>
CN(CC1CCN(c2ccc(-n3ccccc3=O)cc2)CC1)C(=O)c1ccc(CO)cc1 [Compound I-183]

>  <Target of assay>
biotinylated truncated STAT6 (123-632)-avi (Homo sapiens, UniProt P42226)

>  <Result>
4.00 to 5.00

$$$$
>  <Compound>
CN(C)C(=O)c1cc2cc(NC(=O)CCn3ccnn3)ccc2o1 [Compound I-262]

>  <Target of assay>
biotinylated truncated STAT6 (123-632)-avi (Homo sapiens, UniProt P42226)

>  <Result>
4.00 to 5.00

$$$$
>  <Compound>
CN(CC1CCN(c2ccc(-n3ccccc3=O)cc2F)CC1)C(=O)c1ccc(OC(F)F)cc1 [Compound I-1273]

>  <Target of assay>
biotinylated truncated STAT6 (123-632)-avi (Homo sapiens, UniProt P42226)

>  <Result>
4.00 to 5.00

$$$$
>  <Compound>
CN(C)C(=O)c1cc2c([nH]1)CN(C1CCCN(C(=O)CCn3ccnn3)C1)CC2 (stereo not shown) [Compound I-1297]

>  <Target of assay>
biotinylated truncated STAT6 (123-632)-avi (Homo sapiens, UniProt P42226)

>  <Result>
4.00 to 5.00

$$$$
>  <Compound>
CN(C)C(=O)c1ccc2ccc(C3=CCCN(C(=O)CCn4ccnn4)C3)cc2c1 [Compound I-242]

>  <Target of assay>
biotinylated truncated STAT6 (123-632)-avi (Homo sapiens, UniProt P42226)

>  <Result>
4.00 to 5.00

$$$$
>  <Compound>
COc1ccccc1-c1cc(-c2cccc(C(=O)N(C)C)c2)c(F)c2[nH]c(C(=O)N(C)C)cc12 [Compound I-1583]

>  <Target of assay>
biotinylated truncated STAT6 (123-632)-avi (Homo sapiens, UniProt P42226)

>  <Result>
5.00 to 6.00

$$$$
>  <Compound>
O=C(CCn1ccnn1)N1CCC[C@@H](c2ccc(-n3ccccc3=O)c(F)c2)C1 (single isomer, unassigned) [Compound I-1293]

>  <Target of assay>
biotinylated truncated STAT6 (123-632)-avi (Homo sapiens, UniProt P42226)

>  <Result>
4.00 to 5.00

$$$$
>  <Compound>
CN(C)C(=O)c1ccc(C2=CCCN(C(=O)CC3CNc4ccccc4O3)C2)c(C#N)c1 (stereo not shown) [Compound I-223]

>  <Target of assay>
biotinylated truncated STAT6 (123-632)-avi (Homo sapiens, UniProt P42226)

>  <Result>
4.00 to 5.00

$$$$
>  <Compound>
CN(C)C(=O)c1cnc(-c2ccc(NC(=O)CCn3ccnn3)cc2)[nH]1 [Compound I-1295]

>  <Target of assay>
biotinylated truncated STAT6 (123-632)-avi (Homo sapiens, UniProt P42226)

>  <Result>
4.00 to 5.00

$$$$
>  <Compound>
CN(C)C(=O)c1ccc(C2=CCCN(C(=O)CCn3ccnn3)C2)cc1C#N [Compound I-230]

>  <Target of assay>
biotinylated truncated STAT6 (123-632)-avi (Homo sapiens, UniProt P42226)

>  <Result>
< 4.00

$$$$
>  <Compound>
CN(C)C(=O)c1cc2cc(C3CCN(C(=O)CCn4ccnn4)C3)ccc2o1 (stereo not shown) [Compound I-303]

>  <Target of assay>
biotinylated truncated STAT6 (123-632)-avi (Homo sapiens, UniProt P42226)

>  <Result>
4.00 to 5.00

$$$$
>  <Compound>
O=C(CCn1ccnn1)N1CCC=C(c2ccc(-n3ccccc3=O)cc2)C1 [Compound I-1625]

>  <Target of assay>
biotinylated truncated STAT6 (123-632)-avi (Homo sapiens, UniProt P42226)

>  <Result>
5.00 to 6.00

$$$$
